test system: anti-m5C antibody Ab16; assay: ELONA; details: m5C at position 9; plate ELISA, avidity; stated only as subnanomolar
pKd: −log10 of the molar value.
experimental.endpoint: pKd

Supply recorded pKd for NNNNNNNNCNNNNNNNN [m5C degenerate RNA (SEQ ID NO: 4)] here.
> 9.00

###

test system: anti-inosine antibody Ab10; assay: ELONA; conditions: inosine at position 9; plate ELISA, avidity; stated only as subnanomolar
pKd: −log10 of the molar value.
experimental.endpoint: pKd

Supply recorded pKd for NNNNNNNNINNNNNNNN [inosine degenerate RNA (SEQ ID NO: 2 in Table 4)] here.
> 9.00

###

tested on: anti-m6A antibody Ab05; test: ELONA; settings: m6A at position 9; plate ELISA, avidity; stated only as subnanomolar
pKd: −log10 of the molar value.
experimental.endpoint: pKd

Provide pKd, recorded with anti-m6A antibody Ab05, of NNNNNNNNANNNNNNNN [m6A degenerate RNA (SEQ ID NO: 1)]
> 9.00

###

system: anti-m6A antibody Ab01; assay: ELONA; conditions: m6A at position 9; plate ELISA, immobilised RNA, avidity; stated only as subnanomolar; 22C
pKd: −log10 of the molar value.
experimental.endpoint: pKd

Supply recorded pKd for NNNNNNNNANNNNNNNN [m6A degenerate RNA (SEQ ID NO: 1)] here.
> 9.00
